# assayProcedure: Rat IV and PO PK studies
# Type: in vivo, male Sprague-Dawley rats
# particulars: male, Sprague-Dawley, plasma, 3 mg/kg, oral, read-out: Rat po % F
endpointLabel: bioavailability

Can you share its bioavailability? I mean this molecule: C[C@@H]1CN(c2cc(-n3ccc(OCCC4(C(F)(F)F)CC4)n3)ncc2C(=O)NS(=O)(=O)c2ccccc2)C(C)(C)C1 [Comp. 44]
81%

---

# targetUnderTest: F508del-CFTR (Homo sapiens (Human), UniProt P13569, DEL508-508)
# Sequence (P13569 other isoform, or with tags, fused parts or gaps del F508-F508): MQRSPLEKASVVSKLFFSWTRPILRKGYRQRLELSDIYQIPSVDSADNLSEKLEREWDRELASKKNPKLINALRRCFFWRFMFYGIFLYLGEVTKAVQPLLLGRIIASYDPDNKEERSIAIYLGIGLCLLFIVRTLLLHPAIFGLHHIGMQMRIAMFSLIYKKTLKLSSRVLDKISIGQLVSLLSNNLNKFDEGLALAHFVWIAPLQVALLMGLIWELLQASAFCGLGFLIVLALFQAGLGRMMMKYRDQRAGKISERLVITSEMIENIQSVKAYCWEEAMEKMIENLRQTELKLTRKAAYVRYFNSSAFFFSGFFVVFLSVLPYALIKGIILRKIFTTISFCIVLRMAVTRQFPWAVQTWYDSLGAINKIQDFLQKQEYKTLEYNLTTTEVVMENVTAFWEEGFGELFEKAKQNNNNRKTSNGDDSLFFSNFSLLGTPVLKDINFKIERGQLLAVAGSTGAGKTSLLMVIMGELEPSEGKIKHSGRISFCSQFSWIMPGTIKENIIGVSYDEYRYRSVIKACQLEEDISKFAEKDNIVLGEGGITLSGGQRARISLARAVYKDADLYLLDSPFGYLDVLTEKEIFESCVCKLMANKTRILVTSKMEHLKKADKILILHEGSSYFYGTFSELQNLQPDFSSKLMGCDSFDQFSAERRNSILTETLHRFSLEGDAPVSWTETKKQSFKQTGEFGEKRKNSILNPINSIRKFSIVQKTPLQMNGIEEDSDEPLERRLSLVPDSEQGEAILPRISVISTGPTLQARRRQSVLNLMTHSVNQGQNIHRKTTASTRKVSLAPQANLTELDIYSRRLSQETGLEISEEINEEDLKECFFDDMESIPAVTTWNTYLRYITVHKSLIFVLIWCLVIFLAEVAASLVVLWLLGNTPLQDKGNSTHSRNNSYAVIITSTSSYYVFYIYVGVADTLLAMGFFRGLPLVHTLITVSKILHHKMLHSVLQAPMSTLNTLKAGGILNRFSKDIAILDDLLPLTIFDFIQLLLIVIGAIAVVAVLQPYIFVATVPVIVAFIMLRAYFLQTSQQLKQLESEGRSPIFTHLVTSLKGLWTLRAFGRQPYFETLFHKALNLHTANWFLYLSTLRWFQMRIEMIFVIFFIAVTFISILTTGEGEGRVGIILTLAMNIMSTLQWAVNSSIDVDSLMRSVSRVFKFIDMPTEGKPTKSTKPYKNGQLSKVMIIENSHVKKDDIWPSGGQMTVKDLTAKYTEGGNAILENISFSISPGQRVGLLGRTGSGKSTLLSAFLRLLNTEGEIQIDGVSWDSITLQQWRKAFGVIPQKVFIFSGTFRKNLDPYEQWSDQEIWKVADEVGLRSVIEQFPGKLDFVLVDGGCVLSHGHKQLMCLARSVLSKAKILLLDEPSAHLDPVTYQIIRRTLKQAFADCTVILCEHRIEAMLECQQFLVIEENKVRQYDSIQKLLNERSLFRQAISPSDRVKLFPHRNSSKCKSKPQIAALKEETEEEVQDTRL
# assayProcedure: Membrane potential optical (fluorescent voltage sensing dye, FLIPR III) HTS assay for F508del-CFTR modulators
# Assay type: cell-based
# particulars: F508del NIH 3T3 cells, assay 5A-A1; read-out: CFTRdF508 EC50
pEC50: −log10 of the molar value.
endpointLabel: pEC50

Reference set, count: 6
C[C@@H]1CN(c2nc(-n3ccc(OCC4(C(F)(F)F)CC4)n3)ccc2C(=O)NS(=O)(=O)c2ccccc2F)C(C)(C)C1; > 7.00
C[C@@H]1CN(c2nc(-n3ccc(OCC4C(C)(C)C4(C)C)n3)ccc2C(=O)NS(=O)(=O)c2cccc(F)c2)C(C)(C)C1; > 7.00
C[C@@H]1CN(c2nc(-n3ccc(OCC4(C(F)(F)F)CC4)n3)ccc2C(=O)NS(=O)(=O)c2ccccc2C#N)C(C)(C)C1; < 6.00
C[C@@H]1CN(c2nc(-n3ccc(OCCC4(C(F)(F)F)CC4)n3)ccc2C(=O)NS(=O)(=O)c2ccccc2O)C(C)(C)C1; > 7.00
Cc1ccccc1S(=O)(=O)NC(=O)c1ccc(-n2ccc(OCC3C(C)(C)C3(C)C)n2)nc1N1C[C@@H](C)CC1(C)C; > 7.00
CC1(C)CC(CO)CN1c1nc(-n2ccc(OCCC3(C(F)(F)F)CC3)n2)ccc1C(=O)NS(=O)(=O)c1ccccc1 (centres unmarked); 6.00 to 7.00

Fill blank: measured pEC50 of the molecule C[C@@H]1CN(c2nc(-n3ccc(OCCC4(C(F)(F)F)CC4)n3)ccc2C(=O)NS(=O)(=O)c2ccccc2Cl)C(C)(C)C1 is ____.
> 7.00

Recorded pEC50 for C[C@@H]1CN(c2nc(-n3ccc(OCC4(C(F)(F)F)CC4)n3)ccc2C(=O)NS(=O)(=O)c2ccccc2)C(C)(C)C1 , please?
> 7.00

---

# targetUnderTest: human PXR (Homo sapiens (Human), UniProt O75469)
# Sequence (O75469 whole entry): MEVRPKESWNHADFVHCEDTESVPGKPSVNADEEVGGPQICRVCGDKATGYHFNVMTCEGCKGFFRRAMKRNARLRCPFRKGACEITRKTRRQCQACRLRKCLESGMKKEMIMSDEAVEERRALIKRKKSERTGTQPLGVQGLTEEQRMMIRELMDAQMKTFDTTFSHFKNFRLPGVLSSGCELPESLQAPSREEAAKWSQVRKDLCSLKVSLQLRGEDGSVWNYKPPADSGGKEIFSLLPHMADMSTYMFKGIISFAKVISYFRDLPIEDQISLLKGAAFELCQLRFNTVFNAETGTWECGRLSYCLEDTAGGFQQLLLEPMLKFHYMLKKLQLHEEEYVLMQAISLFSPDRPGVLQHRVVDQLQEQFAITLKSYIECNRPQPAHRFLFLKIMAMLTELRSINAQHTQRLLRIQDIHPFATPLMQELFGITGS
# assayProcedure: PXR assay (PXR mediated CYP3A4 induction, DPX-2 cell line)
# Format: cell-based
# particulars: DPX-2 cells, 48 hours, 0.1 to 60 μM
endpointLabel: PXR Max Induction (% of rifampicin)

Known results for compounds:
C[C@@H]1CN(c2nc(-n3ccc(OCC4(C(F)(F)F)CC4)n3)ccc2C(=O)NS(=O)(=O)c2cccc(F)c2)C(C)(C)C1 [Comp. 51]; 17 % of rifampicin
C[C@@H]1CN(c2nc(-n3ccc(OCC4(C(F)(F)F)CC4)n3)ccc2C(=O)NS(=O)(=O)c2ccc(C#N)cc2)C(C)(C)C1 [Comp. 27]; 8 % of rifampicin
C[C@@H]1CN(c2nc(-n3ccc(OCC4C(C)(C)C4(C)C)n3)ccc2C(=O)NS(=O)(=O)c2cccc(F)c2)C(C)(C)C1 [Compound 16]; 2 % of rifampicin
Cc1ccccc1S(=O)(=O)NC(=O)c1ccc(-n2ccc(OCCC3(C(F)(F)F)CC3)n2)nc1N1C[C@@H](C)CC1(C)C [Compound 4]; 4 % of rifampicin

Read the next record carefully.
Entry C[C@@H]1CN(c2nc(-n3ccc(OCC(C)(C)C)n3)ccc2C(=O)NS(=O)(=O)c2ccc[nH]c2=O)C(C)(C)C1 [Comp. C, reference compound] has what PXR Max Induction (% of rifampicin)?
3 % of rifampicin

---

Known AUC of a selection of compounds
# assayProcedure: Rat IV and PO PK studies
# Type: in vivo, male Sprague-Dawley rats
# particulars: male, Sprague-Dawley, plasma, oral, 3 mg/kg
# Procedure: 5C. Experimental Protocol for Rat IV and PO PK Studies […] […] Analyses of plasma and dose preparations were performed using LC/MS/MS. Plasma concentration-time profiles of the tested compound in Sprague-Dawley rats at scheduled (nominal) sampling times were analyzed by noncompartmental pharmacokinetic methods using PK function within Watson LIMS software, Version 7.4.2 (Thermo Scientific Inc, Waltham, Mass.). AUC values were calculated using the linear trapezoidal rule.
Give just the number in ng·h/mL; leave the unit off.

Reference set (4 entries):
C[C@@H]1CN(c2nc(-n3ccc(OCC4C5(CC5)C45CC5)n3)ccc2C(=O)NS(=O)(=O)c2ccccc2)C(C)(C)C1; 9000
C[C@@H]1CN(c2cc(-n3ccc(OCCC4(C(F)(F)F)CC4)n3)ncc2C(=O)NS(=O)(=O)c2ccccc2)C(C)(C)C1; 8500
C[C@@H]1CN(c2nc(-n3ccc(OCC4(C(F)(F)F)CC4)n3)ccc2C(=O)NS(=O)(=O)c2cccc(F)c2)C(C)(C)C1; 10500
C[C@@H]1CN(c2nc(-n3ccc(OCC4(C(F)(F)F)CC4)n3)ccc2C(=O)NS(=O)(=O)c2ccc(O)cc2)C(C)(C)C1; 3600

Tell me the measured AUC of C[C@@H]1CN(c2nc(-n3ccc(OCC4C(C)(C)C4(C)C)n3)ccc2C(=O)NS(=O)(=O)c2ccccc2)C(C)(C)C1 , please.
2300

I'd like to know its AUC. The compound in question is Cc1ccccc1S(=O)(=O)NC(=O)c1ccc(-n2ccc(OCC3(C(F)(F)F)CC3)n2)nc1N1C[C@@H](C)CC1(C)C
12500

Bench note: what AUC did C[C@@H]1CN(c2nc(-n3ccc(OCC(C4CC4)C4CC4)n3)ccc2C(=O)NS(=O)(=O)c2ccccc2)C(C)(C)C1 show?
6400

---

# assayProcedure: Rat IV and PO PK studies
# Type: in vivo, male Sprague-Dawley rats
# particulars: male, Sprague-Dawley, plasma, intravenous, 3.0 mg/kg, read-out: Rat iv CL
# Condition met = clearance below 2 mL/min/kg (exclusive); Condition not met = clearance at/above 2 mL/min/kg

Examples from the recorded data:
COc1ccccc1S(=O)(=O)NC(=O)c1ccc(-n2ccc(OCC3(C(F)(F)F)CC3)n2)nc1N1C[C@@H](C)CC1(C)C; Condition not met
C[C@@H]1CN(c2nc(-n3ccc(OCC4(C(F)(F)F)CCC4)n3)ccc2C(=O)NS(=O)(=O)c2ccccc2)C(C)(C)C1; Condition not met
C[C@@H]1CN(c2nc(-n3ccc(OCC(C4CC4)C4CC4)n3)ccc2C(=O)NS(=O)(=O)c2ccccc2)C(C)(C)C1; Condition met
C[C@@H]1CN(c2nc(-n3ccc(OCC(C)(C)C)n3)ccc2C(=O)NS(=O)(=O)c2cccnc2N)C(C)(C)C1 [Comp. A, reference compound]; Condition not met

Now examine the next entry.
Please determine if C[C@@H]1CN(c2nc(-n3ccc(OCC4(C(F)(F)F)CC4)n3)ccc2C(=O)NS(=O)(=O)c2cccc(F)c2)C(C)(C)C1 is below 2 mL/min/kg in terms of clearance.
Condition not met

---

Listed here are molecules together with their documented bioavailability.
# assayProcedure: Rat IV and PO PK studies
# Assay type: in vivo, male Sprague-Dawley rats
# particulars: male, Sprague-Dawley, plasma, 3 mg/kg, oral, read-out: Rat po % F
For clarity, give the value followed by its unit.

The following molecules have reported results that may help.
C[C@@H]1CN(c2nc(-n3ccc(OCCC4(C(F)(F)F)CC4)n3)ccc2C(=O)NS(=O)(=O)c2cccc(F)c2)C(C)(C)C1; 50%
C[C@@H]1CN(c2nc(-n3ccc(OCC4C5(CC5)C45CC5)n3)ccc2C(=O)NS(=O)(=O)c2ccccc2)C(C)(C)C1; 79%

# bioavailability lookup, item C[C@@H]1CN(c2nc(-n3ccc(OCCC(C4CC4)C4CC4)n3)ccc2C(=O)NS(=O)(=O)c2ccccc2)C(C)(C)C1
51%

Attribution: patent US11186566B2
